target: HLA-B*07:02; experiment: IEDB peptide-MHC binding, purified MHC/direct/fluorescence; filed as Kd, often an IC50 or EC50 that approximates it; bounds were set here for any values at or beyond the usual limits of such assays; details: source organism: Candidatus Solibacter
observable: pKd
Expect pKd as a plain number equal to -log10 of the molar concentration.

Exercise: Requested read-out: pKd. Entry: `RRRPVTRPL`
Key: 8.47

---

target: HLA-A*31:01; assay: IEDB peptide-MHC binding, purified MHC/competitive/radioactivity; filed as Kd, often an IC50 or EC50 that approximates it; bounds were set here for any values at or beyond the usual limits of such assays; conditions: source organism: Mammarenavirus guanaritoense
observable: pKd
Expect pKd as a plain number equal to -log10 of the molar concentration.

# residues, readout_number
measured = [
    ("PCPLPHRLDR", 5.53),
    ("NSYSLIRLSH", 5.01),
]

Let's switch to this sequence now.
Exercise: Requested read-out: pKd. Entry: `NYTRFWYINH`
Key: 5.87

---

molecular target: HLA-B*15:01; experiment: IEDB peptide-MHC binding, purified MHC/competitive/fluorescence; filed as Kd, often an IC50 or EC50 that approximates it; bounds were set here for any values at or beyond the usual limits of such assays; conditions: source organism: Neembucu hantavirus
observable: Kd

Exercise: Requested read-out: Kd. Entry: `ILYMLSWGK`
Key: ≥ 20 µM

---

biological target: HLA-A*69:01; assay: IEDB peptide-MHC binding, purified MHC/competitive/fluorescence; filed as Kd, often an IC50 or EC50 that approximates it; bounds were set here for any values at or beyond the usual limits of such assays; conditions: source organism: Salmonella enterica subsp. enterica serovar Typhi
observable: Kd

Exercise: Requested read-out: Kd. Entry: `LSEEANWAF`
Key: ≥ 20 µM

---

biological target: HLA-B*57:01; test: IEDB peptide-MHC binding, purified MHC/competitive/fluorescence; filed as Kd, often an IC50 or EC50 that approximates it; bounds were set here for any values at or beyond the usual limits of such assays; conditions: source organism: Reston ebolavirus
observable: Kd

Exercise: Requested read-out: Kd. Entry: `WFQRIPLQW`
Key: ≥ 20 µM

---

target: HLA-B*18:01; assay: IEDB peptide-MHC binding, purified MHC/competitive/fluorescence; filed as Kd, often an IC50 or EC50 that approximates it; bounds were set here for any values at or beyond the usual limits of such assays; settings: source organism: Araucaria virus
observable: Kd

Exercise: So what Kd did `GVPELGAFF` get with HLA-B*18:01?
Key: ≥ 20 µM

---

molecular target: HLA-A*02:01; assay: IEDB peptide-MHC binding, purified MHC/competitive/fluorescence; bounds were set here for any values at or beyond the usual limits of such assays; settings: source organism: Human alphaherpesvirus 1 strain 17
observable: pIC50
Expect pIC50 as a plain number equal to -log10 of the molar concentration.

Exercise: Requested read-out: pIC50. Entry: `ALLEDPVGT`
Key: 7.55

---

target: HLA-A*02:02; test: IEDB peptide-MHC binding, purified MHC/competitive/radioactivity; filed as Kd, often an IC50 or EC50 that approximates it; bounds were set here for any values at or beyond the usual limits of such assays; conditions: source organism: Vaccinia virus WR
Item-by-item account of pKd
Expect pKd as a plain number equal to -log10 of the molar concentration.

Please review the following examples before continuing.
# residues, study_target, observable, readout_number
rows = [
    ("LTKDRKMLEL", "HLA-A*02:02", "pKd", 5.11),
    ("LINLVQYRIL", "HLA-A*02:02", "pKd", 5.67),
    ("LLNMRDLIV", "HLA-A*02:02", "pKd", 6.18),
]

Exercise: So what pKd did `QAKKPEVRI` get with HLA-A*02:02?
Key: 6.13

Exercise: // repeat for `KQNKFGDSPL` and report
Key: 7.05

Exercise: // repeat for `IISTDQDTM` and report
Key: 5.37

Exercise: // repeat for `NTIDKSSPL` and report
Key: 7.08

Exercise: // repeat for `SALMTLDDL` and report
Key: 6.39

Exercise: // repeat for `WLGAAITLVV` and report
Key: 7.71

Exercise: // repeat for `NQGNILMDSI` and report
Key: 5.41

Exercise: // repeat for `IASKINNNRI` and report
Key: 6.14

---

target: HLA-A*24:03; experiment: IEDB peptide-MHC binding, purified MHC/direct/fluorescence; filed as Kd, often an IC50 or EC50 that approximates it; bounds were set here for any values at or beyond the usual limits of such assays; conditions: source organism: Burkholderia mallei ATCC 23344
observable: Kd
Please state the value followed by its unit.

Exercise: Requested read-out: Kd. Entry: `CYRGVRHRK`
Key: 1380 nM

---

target: HLA-A*03:01; assay: IEDB peptide-MHC binding, purified MHC/competitive/fluorescence; filed as Kd, often an IC50 or EC50 that approximates it; bounds were set here for any values at or beyond the usual limits of such assays; settings: source organism: Listeria monocytogenes J0161
observable: Kd

Exercise: Requested read-out: Kd. Entry: `YNAKRIETV`
Key: ≥ 20 µM

---

Item-by-item account of Kd
target: HLA-A*26:01; assay: IEDB peptide-MHC binding, purified MHC/competitive/radioactivity; filed as Kd, often an IC50 or EC50 that approximates it; bounds were set here for any values at or beyond the usual limits of such assays; conditions: source organism: SARS coronavirus Tor2
Report the figure in µM without appending any unit label.

Exercise: Requested read-out: Kd. Entry: `MYASALVLL`
Key: 4.62

Exercise: // repeat for `FSAVGNICY` and report
Key: 0.409

Exercise: // repeat for `LVSTQEFRY` and report
Key: 1.76

Exercise: // repeat for `CADGTRHTY` and report
Key: 2.78

Exercise: // repeat for `GSIIQFPNTY` and report
Key: 1.88

---

Item-by-item account of Kd
target: HLA-B*15:01; assay: IEDB peptide-MHC binding, purified MHC/direct/fluorescence; filed as Kd, often an IC50 or EC50 that approximates it; bounds were set here for any values at or beyond the usual limits of such assays; conditions: source organism: Giardia lamblia ATCC 50803

Please review the following examples before continuing.
# residues, result
rows = [
    ("SHSIPNGLL", "≥ 20 µM"),
    ("WLKEKHEEL", "0.498 µM"),
    ("ETESVNSNY", "≥ 20 µM"),
]

Let's switch to this sequence now.
Exercise: Requested read-out: Kd. Entry: `VLLISDPGL`
Key: ≥ 20 µM

---

biological target: HLA-A*68:02; assay: IEDB peptide-MHC binding, purified MHC/direct/fluorescence; filed as Kd, often an IC50 or EC50 that approximates it; bounds were set here for any values at or beyond the usual limits of such assays; settings: source organism: Giardia lamblia ATCC 50803
pKd: −log10 of the molar value.
observable: pKd

Exercise: So what pKd did `VLLISDPGL` get with HLA-A*68:02?
Key: ≤ 4.70

---

biological target: HLA-B*57:01; experiment: IEDB peptide-MHC binding, purified MHC/competitive/fluorescence; filed as Kd, often an IC50 or EC50 that approximates it; bounds were set here for any values at or beyond the usual limits of such assays; settings: source organism: Araucaria virus
pKd: −log10 of the molar value.
observable: pKd

Exercise: Requested read-out: pKd. Entry: `GVPELGAFF`
Key: ≤ 4.70

---

molecular target: HLA-A*24:03; test: IEDB peptide-MHC binding, purified MHC/direct/fluorescence; filed as Kd, often an IC50 or EC50 that approximates it; bounds were set here for any values at or beyond the usual limits of such assays; conditions: source organism: Reston ebolavirus - Reston
observable: pKd
Expect pKd as a plain number equal to -log10 of the molar concentration.

Exercise: Requested read-out: pKd. Entry: `AFHQLVQVI`
Key: 8.68

---

Item-by-item account of Kd
molecular target: HLA-A*80:01; test: IEDB peptide-MHC binding, purified MHC/direct/fluorescence; filed as Kd, often an IC50 or EC50 that approximates it; bounds were set here for any values at or beyond the usual limits of such assays; conditions: source organism: Bacillus anthracis

# residues, Kd
records = [
    ("VLRACWNEK", "≥ 20 µM"),
]

Exercise: Requested read-out: Kd. Entry: `SVHYKFVTK`
Key: ≥ 20 µM

---

molecular target: HLA-B*07:02; assay: IEDB peptide-MHC binding, purified MHC/direct/fluorescence; filed as Kd, often an IC50 or EC50 that approximates it; bounds were set here for any values at or beyond the usual limits of such assays; details: source organism: Vibrio cholerae
observable: Kd (nM)
Report the figure in nM without appending any unit label.

Exercise: Requested read-out: Kd. Entry: `RPRIRLSAP`
Key: 27.8
